Measurement Notes: Plasma concentration after single oral administration to rats (LC-MS)
Format: in vivo
Condition Summary: male, Crl:CD <SD>, rat, plasma, po, 100 mg/kg, oral 100 mg/kg single, 4 hr, individual animal, read-out: Plasma concentration of Compound A
Metric: concentration at 4 h

Given the compound `C[C@H]1CN(C(=O)CC#N)[C@]12CCN(c1ncnc3[nH]ccc13)C2` , what is its reported concentration at 4 h?
4860 ng/mL

---

Measurement Notes: Neural retina concentration after single oral administration to rats (LC-MS)
Assay type: in vivo, rat
Condition Summary: male, Crl:CD <SD>, rat, neural retina, po, 100 mg/kg, rat, oral 100 mg/kg single, 2 hr, average; read-out: Neural retina concentration of Compound A, Average
Metric: concentration at 2 h (ng/mL)
Give a bare numeral; the unit ng/mL is implied.

Which concentration at 2 h value belongs to `C[C@H]1CN(C(=O)CC#N)[C@]12CCN(c1ncnc3[nH]ccc13)C2` ?
2720

---

Measurement Notes: Plasma concentration after single oral administration to rats (LC-MS)
Assay type: in vivo
Condition Summary: male, Crl:CD <SD>, rat, plasma, po, 100 mg/kg, oral 100 mg/kg single, 24 hr, average, read-out: Plasma concentration of Compound A, Average
Metric: concentration at 24 h
Please state the number and follow it with the unit.

Which concentration at 24 h is reported for this compound? `C[C@H]1CN(C(=O)CC#N)[C@]12CCN(c1ncnc3[nH]ccc13)C2`
20 ng/mL

---

Measurement Notes: Plasma concentration after single oral administration to rats (LC-MS)
Format: in vivo
Condition Summary: male, Crl:CD <SD>, rat, plasma, po, 100 mg/kg, oral 100 mg/kg single, 24 hr, individual animal, read-out: Plasma concentration of Compound A
Metric: concentration at 24 h
// unit must come after the numeric part

Any idea what concentration at 24 h was measured for C[C@H]1CN(C(=O)CC#N)[C@]12CCN(c1ncnc3[nH]ccc13)C2 [Compound A] ?
30 ng/mL

---

Measurement Notes: Neural retina concentration after single oral administration to rats (LC-MS)
Type: in vivo, rat
Condition Summary: male, Crl:CD <SD>, rat, neural retina, po, 100 mg/kg, rat, oral 100 mg/kg single, 0.5 hr, individual eye; read-out: Neural retina concentration of Compound A
Metric: concentration at 0.5 h (ng/mL)
State just the number; it will be interpreted in ng/mL.

For the compound shown here, `C[C@H]1CN(C(=O)CC#N)[C@]12CCN(c1ncnc3[nH]ccc13)C2` , give the reported concentration at 0.5 h.
2960

---

Measurement Notes: Plasma concentration after single oral administration to rats (LC-MS)
Format: in vivo
Condition Summary: male, Crl:CD <SD>, rat, plasma, po, 100 mg/kg, oral 100 mg/kg single, 2 hr, average, read-out: Plasma concentration of Compound A, Average
Metric: concentration at 2 h
Entry format: amount then unit.

What value of concentration at 2 h has been recorded for this entry: C[C@H]1CN(C(=O)CC#N)[C@]12CCN(c1ncnc3[nH]ccc13)C2 [Compound A]
6350 ng/mL

---

Measurement Notes: Neural retina concentration after single oral administration to rats (LC-MS)
Assay type: in vivo, rat
Condition Summary: male, Crl:CD <SD>, rat, neural retina, po, 100 mg/kg, rat, oral 100 mg/kg single, 1 hr, average; read-out: Neural retina concentration of Compound A, Average
Metric: concentration at 1 h
Quick note: number first, unit second.

Tell me the measured concentration at 1 h of `C[C@H]1CN(C(=O)CC#N)[C@]12CCN(c1ncnc3[nH]ccc13)C2` , please.
3860 ng/mL
